Recorded IC50, one value per entry.
experimental system: Bcl-xL/Bcl-2-binding component 3 (Homo sapiens, UniProt Q07817+Q9BXH1)
Sequence (Q07817 whole entry): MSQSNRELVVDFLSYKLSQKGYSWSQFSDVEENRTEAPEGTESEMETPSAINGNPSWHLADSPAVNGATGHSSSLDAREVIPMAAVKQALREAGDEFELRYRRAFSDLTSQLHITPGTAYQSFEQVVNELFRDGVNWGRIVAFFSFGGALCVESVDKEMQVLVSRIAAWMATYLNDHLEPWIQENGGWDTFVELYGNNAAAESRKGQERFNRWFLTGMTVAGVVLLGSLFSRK
Sequence (Q9BXH1 whole entry): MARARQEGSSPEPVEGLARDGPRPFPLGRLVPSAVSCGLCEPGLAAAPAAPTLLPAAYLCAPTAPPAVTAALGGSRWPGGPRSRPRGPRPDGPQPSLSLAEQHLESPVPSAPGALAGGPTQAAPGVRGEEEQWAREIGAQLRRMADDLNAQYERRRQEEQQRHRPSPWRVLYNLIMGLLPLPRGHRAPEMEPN
assay summary: Inhibition of GST-tagged Bcl-xl/FITC-conjugated PUMA interaction by fluorescence polarisation assay
Format: protein assay

| compound | bound operator | IC50 / µM |
| --- | --- | --- |
| COc1ccc2c(CC(C)C)cc(-c3cc4c(C(C)C)cccc4nc3OC)cc2n1 | > | 1000 |
| CCC(C)c1cc(-c2cc3c(CC(C)C)cc(-c4cc5c(C(C)C)cccc5nc4OC)cc3nc2OC)cc2nc(OC)ccc12 (racemic) | = | 42 |
| CCOc1nc2ccccc2cc1-c1cc(C(C)C)c2cc(-c3cc(C(C)C)c4ccc(OC)nc4c3)c(OC)nc2c1 | = | 54 |

* * *

experimental system: Apoptosis regulator BAX/Bcl-2 (Homo sapiens, UniProt P10415+Q07812)
Sequence (P10415 whole entry): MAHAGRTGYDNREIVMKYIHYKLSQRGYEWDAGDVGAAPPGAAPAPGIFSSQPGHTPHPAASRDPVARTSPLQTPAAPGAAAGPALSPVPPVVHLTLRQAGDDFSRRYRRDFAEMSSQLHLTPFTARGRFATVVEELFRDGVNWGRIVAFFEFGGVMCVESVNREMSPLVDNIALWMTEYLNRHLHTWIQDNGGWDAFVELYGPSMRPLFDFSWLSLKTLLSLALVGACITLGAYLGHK
Sequence (Q07812 whole entry): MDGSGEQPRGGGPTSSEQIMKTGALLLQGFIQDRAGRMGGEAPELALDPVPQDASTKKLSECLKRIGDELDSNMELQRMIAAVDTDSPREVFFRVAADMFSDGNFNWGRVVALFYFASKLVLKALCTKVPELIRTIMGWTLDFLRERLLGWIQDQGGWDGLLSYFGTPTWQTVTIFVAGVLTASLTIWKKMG
assay summary: Inhibition of GST-tagged Bcl-2/FITC-conjugated Bax interaction by fluorescence polarisation assay
pIC50: −log10 of the molar value.

| compound | pIC50 |
| --- | --- |
| CCC(C)c1cc(-c2cc3c(CC(C)C)cc(-c4cc5c(C(C)C)cccc5nc4OC)cc3nc2OC)cc2nc(OC)ccc12 (racemic) | 4.37 |

* * *

experimental system: Bcl-xL/Bcl-2-like protein 11 (Homo sapiens, UniProt Q07817)
Sequence (Q07817 whole entry): as the sequence (Q07817 whole entry) above
Sequence (O43521 whole entry, further chain): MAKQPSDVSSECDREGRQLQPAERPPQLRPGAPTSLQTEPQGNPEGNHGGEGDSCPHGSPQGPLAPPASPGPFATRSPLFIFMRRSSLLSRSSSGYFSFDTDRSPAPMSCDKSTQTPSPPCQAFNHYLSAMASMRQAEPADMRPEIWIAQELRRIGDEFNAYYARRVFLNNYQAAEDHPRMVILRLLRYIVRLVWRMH
assay summary: Inhibition of GST-tagged Bcl-xl/FITC-conjugated Bim interaction by fluorescence polarisation assay

| compound | IC50 / µM |
| --- | --- |
| CCOc1nc2ccccc2cc1-c1cc(C(C)C)c2cc(-c3cc(C(C)C)c4ccc(OC)nc4c3)c(OC)nc2c1 | 47 |
| COc1ccc2c(CC(C)C)cc(-c3cc4c(C(C)C)cccc4nc3OC)cc2n1 | 29 |
| CCC(C)c1cc(-c2cc3c(CC(C)C)cc(-c4cc5c(C(C)C)cccc5nc4OC)cc3nc2OC)cc2nc(OC)ccc12 (racemic) | 92.5 |
